system: SSB mRNA in liver; assay: In vivo gene knockdown, liposomal siRNA formulation (Example 3), SSB siRNA; design: species or system CD1 mice; details: liposomal formulation, SSB siRNA, dose 3.2 mg/kg intravenously, CD1 mice, liver harvested three days later, real-time RT-PCR, GAPDH reference
MEASURED_METRIC: Targeted mRNA remain in liver
Form field (numeric): enter value without unit.

*Q* Which Targeted mRNA remain in liver value belongs to CCCCCCCCCCCCCCC(O)CN(CCN(C)CCN(CC(O)CCCCCCCCCCCCCC)CC(O)CCCCCCCCCCCCCC)CC(O)CCCCCCCCCCCCCC (centres unmarked) ?
*A* 0.25

*Q* Given the compound CCCCCCCCCCCCCCC(O)CN1CCN(Cc2ccccc2)CCN(CC(O)CCCCCCCCCCCCCC)CCN(CC(O)CCCCCCCCCCCCCC)CC1 (centres unmarked) , what is its reported Targeted mRNA remain in liver?
*A* 0.47

*Q* # Targeted mRNA remain in liver lookup, item CCCCCCCCCCCCC(O)CN(CCCN(CCCN(CC(O)CCCCCCCCCCCC)CC(O)CCCCCCCCCCCC)CCCN(CC(O)CCCCCCCCCCCC)CC(O)CCCCCCCCCCCC)CC(O)CCCCCCCCCCCC (centres unmarked)
*A* 0.17

*Q* If you can, please state the reported Targeted mRNA remain in liver value of CCCCCCCCCCCCC(O)CN(CCCN1CCN(CCCN(CC(O)CCCCCCCCCCCC)CC(O)CCCCCCCCCCCC)CC1)CC(O)CCCCCCCCCCCC (centres unmarked) .
*A* 0.08

*Q* Any idea what Targeted mRNA remain in liver was measured for CCCCCCCCCCCCCCOCC(O)CN(CCCN(CCCN(CCCN(CC(O)COCCCCCCCCCCCCCC)CC(O)COCCCCCCCCCCCCCC)CCCN(CC(O)COCCCCCCCCCCCCCC)CC(O)COCCCCCCCCCCCCCC)CCCN(CC(O)COCCCCCCCCCCCCCC)CC(O)COCCCCCCCCCCCCCC)CC(O)COCCCCCCCCCCCCCC (centres unmarked) ?
*A* 0.13

*Q* Need Targeted mRNA remain in liver, item CCCCCCCCCCCCCCOCC(O)CN1CCCN(CC(O)COCCCCCCCCCCCCCC)CCCN(CC(O)COCCCCCCCCCCCCCC)CCC1 (centres unmarked)
*A* 0.3

*Q* Reported Targeted mRNA remain in liver, compound CCCCC(CC)COCC(O)CN(CCN(C)CCN(CC(O)COCC(CC)CCCC)CC(O)COCC(CC)CCCC)CC(O)COCC(CC)CCCC (centres unmarked) : ____
*A* 0.24

*Q* Dear colleague, I am looking for the recorded Targeted mRNA remain in liver of the following compound: CCCCCCCCCCCCCCOCC(O)CN(CCN(CCN(CC(O)COCCCCCCCCCCCCCC)CC(O)COCCCCCCCCCCCCCC)CCN(CC(O)COCCCCCCCCCCCCCC)CC(O)COCCCCCCCCCCCCCC)CC(O)COCCCCCCCCCCCCCC (centres unmarked)
*A* 0.13

*Q* # query: Targeted mRNA remain in liver of entry CCCCCCCCCCOCC(O)CN(CCCN(C)CCCN(CC(O)COCCCCCCCCCC)CC(O)COCCCCCCCCCC)CC(O)COCCCCCCCCCC (centres unmarked)
*A* 0.68

*Q* // returns reported Targeted mRNA remain in liver for input CCCCC(CC)COCC(O)CN(CCCN(CC(O)COCC(CC)CCCC)CC(O)COCC(CC)CCCC)CCCN(CC(O)COCC(CC)CCCC)CC(O)COCC(CC)CCCC (centres unmarked)
*A* 0.18

*Q* Which Targeted mRNA remain in liver value belongs to CCCCCCCCCCCCC(O)CN1CCN(Cc2ccccc2)CCN(CC(O)CCCCCCCCCCCC)CCN(Cc2ccccc2)CC1 (centres unmarked) ?
*A* 0.8

*Q* I have this compound here, CCCCCCCCCCOCC(O)CN(CCCN1CCN(CCCN(CC(O)COCCCCCCCCCC)CC(O)COCCCCCCCCCC)CC1)CC(O)COCCCCCCCCCC (centres unmarked) , and I need its recorded Targeted mRNA remain in liver.
*A* 0.36

*Q* // lookup Targeted mRNA remain in liver for CCCCC(CC)COCC(O)CN(CCCN(CCCCN(CCCN(CC(O)COCC(CC)CCCC)CC(O)COCC(CC)CCCC)CCCN(CC(O)COCC(CC)CCCC)CC(O)COCC(CC)CCCC)CCCN(CC(O)COCC(CC)CCCC)CC(O)COCC(CC)CCCC)CC(O)COCC(CC)CCCC (centres unmarked)
*A* 0.12

*Q* # input compound: CCCCCCCCCCCCCCC(O)CN(CCCN(CCCN(CC(O)CCCCCCCCCCCCCC)CC(O)CCCCCCCCCCCCCC)CCCN(CC(O)CCCCCCCCCCCCCC)CC(O)CCCCCCCCCCCCCC)CC(O)CCCCCCCCCCCCCC (centres unmarked) ; wanted: its Targeted mRNA remain in liver
*A* 0.33

Where these numbers come from: patent US9233971B2
